Every entry's value here was drawn from the supplement of paper PMC9112550.

Recorded shrunken log2 fold change values for a group of sequences are listed next.
System: Escherichia coli TOP10
Experiment notes: shrunken log2 fold change of peptide-encoding DNA abundance (4.5 h post-induction vs induction); higher = less antimicrobial activity (less host growth inhibition)
Conditions used: time post-induction: 4.5 h; library: site-saturation at positions 5, 18, 19, 20
Could you keep your reply to the number by itself?

RRIRTRPPRLPRPRPRPSRYPRP; -0.23
RRIRCRPPRLPRPRPRPTPEPRP; 0.284

Here is another sequence to look at.
Tell me shrunken log2 fold change of RRIRTRPPRLPRPRPRPKQTPRP when tested on Escherichia coli TOP10.
0.204

====

Tested on: Escherichia coli TOP10;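 note: peptides expressed intracellularly from a pBAD plasmid library in pooled LB shake-flask culture, induced with 0.3% L-arabinose, DNA abundance read by NGS, three biological replicates, DESeq2 with apeglm shrinkage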
Experiment notes: shrunken log2 fold change of peptide-encoding DNA abundance (4.5 h post-induction vs induction); higher = less antimicrobial activity (less host growth inhibition)
Conditions used: time post-induction: 4.5 h; library: site-saturation at positions 5, 18, 19, 20
Measured parameter: shrunken log2 fold change
Could you keep your reply to the number by itself?

RRIRYRPPRLPRPRPRPYEGPRP; -0.00776

Here is another sequence to look at.
Quote shrunken log2 fold change reported for RRIRQRPPRLPRPRPRPQPRPRP please.
0.48
